# Kd per record follows
Molecular target: BN/GRP receptor-positive MCF7 human breast cancer cells (Homo sapiens, UniProt P30550)
Construct: BN/GRP receptor-positive MDA-MB-231, MCF7, T47D human breast cancer, and PC3 human prostate cancer lines; intact cells
Assay: Saturation binding assay on MCF7 cells
Conditions: ~300,000 cells, 0.1-25 nM radiopeptide, 60 min, room temperature, n = 3-5 experiments, mean ± SD
Numbered stars: 1 amine (or outer) side, 2 acyl side, 3 side chain; on linkers, the order of the positions; unused ones are H or OH. Square brackets hold non-standard residues; d marks the D form. Peptide text beside a SMILES is read from it. * marks the point of attachment. DOTA = O=C(O)CN1CCN(CC(=O)O)CCN(CC(=O)*)CCN(CC(=O)O)CC1; Cha = N[C@@H](CC1CCCCC1)C(=O)O; X1 = O=C(CCC(=O)[*:2])CN[*:1]; Nle = CCCC[C@H](N)C(=O)O; Ahx = NCCCCCC(=O)O

compound: CCCC[C@H](NC(=O)[C@H](Cc1c[nH]cn1)NC(=O)[C@H](CC1CCCCC1)NC(=O)[C@@H](NC(=O)[C@H](C)NC(=O)[C@H](Cc1c[nH]c2ccccc12)NC(=O)[C@H](CCC(N)=O)NC(=O)[C@H](CS)NC(=O)CNC(=O)CNC(=O)CCCCCNC(=O)CN1CCN(CC(=O)O)CCN(CC(=O)O)CCN(CC(=O)O)CC1)C(C)C)C(=O)N[C@@H](CCSC)C(N)=O [^68Ga-DOTA-Ahx-BN Cyclen, metal not drawn] ({DOTA-Ahx}-GGCQWAV[Cha]H[Nle]M-NH2)
Kd (nM): 9.8
--
compound: CCCC[C@H](NC(=O)[C@H](Cc1c[nH]cn1)NC(=O)[C@H](CC1CCCCC1)NC(=O)[C@@H](NC(=O)[C@H](C)NC(=O)[C@H](Cc1c[nH]c2ccccc12)NC(=O)[C@H](CCC(N)=O)NC(=O)[C@H](CS)NC(=O)CNC(=O)CNC(=O)CCC(=O)CNC(=O)CN1CCN(CC(=O)O)CCN(CC(=O)O)CCN(CC(=O)O)CC1)C(C)C)C(=O)N[C@@H](CCSC)C(N)=O [^68Ga-DOTA-ALA-BN Cyclen, metal not drawn] ({DOTA}-[X1]GGCQWAV[Cha]H[Nle]M-NH2)
Kd (nM): 13.7
--
compound: CCCC[C@H](NC(=O)[C@H](Cc1c[nH]cn1)NC(=O)[C@H](CC1CCCCC1)NC(=O)[C@@H](NC(=O)[C@H](C)NC(=O)[C@H](Cc1c[nH]c2ccccc12)NC(=O)[C@H](CCC(N)=O)NC(=O)[C@H](CS)NC(=O)CNC(=O)CNC(=O)CCCCCNC(=O)CN1CCN(CC(=O)O)CCN(CC(=O)O)CCN(CC(=O)O)CC1)C(C)C)C(=O)N[C@@H](CCSC)C(N)=O [^68Ga-DOTA-Ahx-BN Tris-, metal not drawn] ({DOTA-Ahx}-GGCQWAV[Cha]H[Nle]M-NH2)
Kd (nM): 9.32
